Data origin, for the record: paper PMC11420776

Tested on: HCC-2998 (colon cancer)
Assay: NCI 60-cell one-dose antiproliferative screen
Type: cell-based, human
Conditions: one dose 10 μM
measured.endpoint: GI%

| item.smiles | readout.value |
| --- | --- |
| CC(=O)NNc1ccc2nnc(-c3ccccc3)n2n1 | — (— GI% is below 15%) |
| COc1ccc(-c2nnc3ccc(NN=Cc4ccc(O)cc4)nn23)cc1 | 85.07% |
| CN(C)c1ccc(C=NNc2ccc3nnc(-c4ccccc4)n3n2)cc1 | — (— GI% is below 15%) |
| COc1ccc(-c2nnc3ccc(NNC(C)=O)nn23)cc1 | — (— GI% is below 15%) |

----------
# reported GI%; entries follow
Tested on: OVCAR-4 (ovarian cancer)
Test: NCI 60-cell one-dose antiproliferative screen
Assay type: cell-based, human
Conditions: one dose 10 μM
// units = %; emit number, no label

# annotated cases, reported GI% shown
| item.smiles | measured.endpoint | units | readout.value |
| --- | --- | --- | --- |
| Cc1ccc(-c2nnc3ccc(NN=Cc4ccccc4)nn23)cc1 | GI% | % | 30.86 |
| COc1ccc(-c2nnc3ccc(NN=Cc4ccc(O)cc4)nn23)cc1 | GI% | % | 52.11 |
| COc1ccc(-c2nnc3ccc(NN=Cc4ccc(C)cc4)nn23)cc1 | GI% | % | 63.09 |

In: Please report the measured GI% for CN(C)c1ccc(C=NNc2ccc3nnc(-c4ccccc4)n3n2)cc1 tested on OVCAR-4 (ovarian cancer).
Out: 41.36

----------
Tested on: TK-10 (renal cancer)
Assay: NCI 60-cell one-dose antiproliferative screen
Type: cell-based, human
Conditions: one dose 10 μM
measured.endpoint: GI%

| compound | measured.endpoint | readout.value |
| --- | --- | --- |
| COc1ccc(-c2nnc3ccc(NN=Cc4ccc(C)cc4)nn23)cc1 [Compound 4f] | GI% | 17.28% |
| COc1ccc(-c2nnc3ccc(NN=Cc4ccc(O)cc4)nn23)cc1 [Compound 4g] | GI% | 61.05% |
| COc1ccc(-c2nnc3ccc(NNC(C)=O)nn23)cc1 [Compound 6b] | GI% | — (— GI% is below 15%) |
| CN(C)c1ccc(C=NNc2ccc3nnc(-c4ccccc4)n3n2)cc1 [Compound 4c] | GI% | — (— GI% is below 15%) |

# context switch: different compound, same GI%
In: // fetch GI% given entry CC(=O)NNc1ccc2nnc(-c3ccccc3)n2n1 [Compound 6a]
Out: — (— GI% is below 15%)

----------
Tested on: HCT-116 (colon cancer)
Assay: NCI 60-cell one-dose antiproliferative screen
Type: cell-based, human
Settings: one dose 10 μM
measured.endpoint: GI%

# annotated cases, reported GI% shown
| item.smiles | GI% |
| --- | --- |
| COc1ccc(-c2nnc3ccc(NN=Cc4ccc(O)cc4)nn23)cc1 | 72.71% |
| CC(=O)NNc1ccc2nnc(-c3ccccc3)n2n1 | — (— GI% is below 15%) |
| COc1ccc(-c2nnc3ccc(NNC(C)=O)nn23)cc1 | — (— GI% is below 15%) |
| O=[N+]([O-])c1ccc(C=NNc2ccc3nnc(-c4ccccc4)n3n2)cc1 | — (— GI% is below 15%) |
| Cc1ccc(-c2nnc3ccc(NN=Cc4ccccc4)nn23)cc1 | — (— GI% is below 15%) |
| COc1ccc(-c2nnc3ccc(NN=Cc4ccc(C)cc4)nn23)cc1 | 21.17% |
| COc1ccc(-c2nnc3ccc(NN=Cc4ccccc4)nn23)cc1 | — (— GI% is below 15%) |
| Cc1cc(C)n(-c2ccc3nnc(-c4ccccc4)n3n2)n1 | — (— GI% is below 15%) |

In: // fetch GI% given entry CN(C)c1ccc(C=NNc2ccc3nnc(-c4ccccc4)n3n2)cc1
Out: — (— GI% is below 15%)
